The measurements presented in this section are drawn from the RNAGym collection of RNA variant scans (doi:10.1038/nmeth.2970).

For each entry below, report its pKd value.
B1: NELF-E aptamer (parent)
chain: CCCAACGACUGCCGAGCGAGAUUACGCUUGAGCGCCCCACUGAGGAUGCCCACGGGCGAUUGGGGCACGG

Variants of: B1
assayDetails: HiTS-RAP
appliedConditions: with NELF-E (Drosophila)
As a rule, pKd stands for the negative log10 of the concentration, concentration in M.

Query: Return pKd for the following variant: `CCCAGCGACUGCCGAGUGAGAUUACGCUUGAGCGCCCCACUGAGGAUGCCCACGGGCGAUUGGGGCACGG`
Response: 8.20

Query: Return pKd for the following variant: `CCCAACGACUGCCGAGCGGGAUUACGCUUGAGCGCCCCACUGAGGAUGCCCACGGGCGAUUGGAGCACGG`
Response: 8.18

Query: Return pKd for the following variant: `CCCAACGGCUGCCGAGCGAGAUUAUGCUUGAGCGCCCCACUGAGGAUGCCCACGGGCGAUUGGGGCACGG`
Response: 8.29

Query: Return pKd for the following variant: `CCCAACGACCGCCGAGCGAGAUUGCGCUUGAGCGCCCCACUGAGGAUGCCCACGGGCGAUUGGGGCACGG`
Response: 8.27

Query: Return pKd for the following variant: `CCCAACGACUGCCAAGCGAGAUUACGCUUGAGUGCCCCACUGAGGAUGCCCACGGGCGAUUGGGGCACGG`
Response: 8.21

Query: Return pKd for the following variant: `CCCAAGGACUGCCGAGCGAGAUUACGCUUGAGUGCCCCACUGAGGAUGCCCACGGGCGAUUGGGGCACGG`
Response: 8.27

Query: Return pKd for the following variant: `CCCAACGACUGCCGAGCGAGAUGACGCUCGAGCGCCCCACUGAGGAUGCCCACGGGCGAUUGGGGCACGG`
Response: 8.25

Query: Return pKd for the following variant: `CCCAACGACUGCCGAGCGGGAUUACGCUUGUGCGCCCCACUGAGGAUGCCCACGGGCGAUUGGGGCACGG`
Response: 8.28

Query: Return pKd for the following variant: `CCCAACGACUGCCAAGCGAUAUUACGCUUGAGCGCCCCACUGAGGAUGCCCACGGGCGAUUGGGGCACGG`
Response: 8.23

Query: Return pKd for the following variant: `CCCAGCGACUGCCGAGCGAGAUUACGCUUGAGCGCCCCACUGAGAAUGCCCACGGGCGAUUGGGGCACGG`
Response: 7.66

Query: Return pKd for the following variant: `CCCAGCGACUGCCGAGCGAGAUUACGCUUGAGCGCCCCACUGAGGAUGCCCACGGGCGAUUGGGGCACGG`
Response: 8.26

Query: Return pKd for the following variant: `CCCAACGUCUGCCGAGCGAGAUUACGCUUGAGCGCCCCACUGAGGAUGCCCACGGGCGGUUGGGGCACGG`
Response: 7.33

Query: Return pKd for the following variant: `CCCAACUACUUCCGAGCGAGAUUACGCUUGAGCGCCCCACUGAGGAUGCCCACGGGCGAUUGGGGCACGG`
Response: 8.19

Query: Return pKd for the following variant: `CCCAACGACUGCCGAGCGAGAGUACGCUUGAGCGCCCCACUGAGGAUGCCCACGGGCGAUUGGGGCUCGG`
Response: 8.14

Query: Return pKd for the following variant: `CCCAACGACUGCGGAGCGAGUUUACGCUUGAGCGCCCCACUGAGGAUGCCCACGGGCGAUUGGGGCACGG`
Response: 8.26

Query: Return pKd for the following variant: `CCCAACGACUGCCGAGCGAUAUUACGCUUGAGCGCCCCACUGAGGAUGCCCACGGGCGAUUGGGGCACGG`
Response: 8.22

Query: Return pKd for the following variant: `CCCAACGACUGCCUAGCGAGAUUACACUUGAGCGCCCCACUGAGGAUGCCCACGGGCGAUUGGGGCACGG`
Response: 8.28

Query: Return pKd for the following variant: `CCCAGCGACUGCCGAGCGAGAUUACGCUUGAGCGCCCCACUGAGGAUGCCCACGGACGAUUGGGGCACGG`
Response: 7.95

Query: Return pKd for the following variant: `CCCGACGACUGCCGAGCGAGAUUACGCUUGAGUGCCCCACUGAGGAUGCCCACGGGCGAUUGGGGCACGG`
Response: 8.24

Query: Return pKd for the following variant: `CCCAACGACUGCCGAGCGAGAUUACUGUUGAGCGCCCCACUGAGGAUGCCCACGGGCGAUUGGGGCACGG`
Response: 8.31

Query: Return pKd for the following variant: `CCCGACGACUGCCGAGCGAGAUUACGCUUGAGCGCCCCCCUGAGGAUGCCCACGGGCGAUUGGGGCACGG`
Response: 7.51

Query: Return pKd for the following variant: `CCCACCUACUGCCGAGCGAGAUUACGCUUGAGCGCCCCACUGAGGAUGCCCACGGGCGAUUGGGGCACGG`
Response: 8.13

Query: Return pKd for the following variant: `CCCUACGACUGCCGAGCGAGAUUACGCUUGAGCGCCUCACUGAGGAUGCCCACGGGCGAUUGGGGCACGG`
Response: 8.01

Query: Return pKd for the following variant: `CCCAAUGACUGCCGAGCGAGAGUACGCUUGAGCGCCCCACUGAGGAUGCCCACGGGCGAUUGGGGCACGG`
Response: 8.25

Query: Return pKd for the following variant: `CCCGACGACUGCCGAGCGAGAUUACGCUUGAGCGCCCCACUGAGGAUGCCCACGGACGAUUGGGGCACGG`
Response: 8.03

Query: Return pKd for the following variant: `CCCAACGACUGCCGAUCGAGAUUACGCUUGAGCGCCCCACUGAGGAUGCCCACGGACGAUUGGGGCACGG`
Response: 7.88

Query: Return pKd for the following variant: `CCCAACGACUGCCGAGCGAGAGUACGCUUGAGCGCCCCACUGAGGAUGCCUACGGGCGAUUGGGGCACGG`
Response: 8.15

Query: Return pKd for the following variant: `CCCAACGACUGGCGAGCGAGAUUACGCUUGAGCGCCCCACUGAGGAUGCCCACGGGCGAUUGUGGCACGG`
Response: 7.86

Query: Return pKd for the following variant: `CCCUACGACUGCCGAGCGAGAUUGCGCUUGAGCGCCCCACUGAGGAUGCCCACGGGCGAUUGGGGCACGG`
Response: 8.19
